- Test system: NCI/ADR-RES ovarian
- assay: NCI tumour cell line growth inhibition, 48 h; in the data active = GI50 below about 0.43 µM; inactive = the rest
Give your call using only these classes: active, inactive

Answered cases to consult:
# compound, class.name
measured = [
    ("CSc1ccc(N(C)c2nc(C)nc3c2CCC3)cc1", "active"),
    ("O=C(c1cccs1)C1NO[N+]([O-])=C1c1cccs1 (stereo not drawn)", "inactive"),
    ("Cc1c2c(cc[n+]1Cc1ccc(F)cc1)c1ccc(OCc3cccc(F)c3)cc1n2Cc1cccc(F)c1", "inactive"),
    ("C/C1=C\\CC[C@@](C)(O)[C@@H]2C[C@H](CC/C(C)=C/CC1)C1(CC1)C(=O)O2", "inactive"),
    ("O=C1c2ccccc2-c2c1c1ccccc1c(=O)n2CCNCCn1c2c(c3ccccc3c1=O)C(=O)c1ccccc1-2", "inactive"),
]

Q) // return assay outcome for `CCOC(=O)N1CCN(CCCCCOc2ccccc2C2CCCCC2)CC1`
A) inactive

Q) Recorded test call requested for `c1cnn2ncc(-c3ccnc(Nc4ccc5c(c4)OCCO5)n3)c2c1`
A) active

Q) // param item: `CCNCCNc1cc(-c2ccc(C#N)cc2)c(C#N)c2nc3ccccc3n12` ; yields the recorded call
A) inactive

###

- Test system: A498 renal
- assay: NCI tumour cell line growth inhibition, 48 h
experimental.readout: TGI

Sample records with TGI:
# molecule, system, TGI
data = [
    ("CC(C)C(N)C(=O)NC(CCC(=O)NCCCCC(N)C(=O)NCCCNc1ccc([N+](=O)[O-])c2[nH]c3ccccc3c(=O)c12)C(N)=O (stereo unspecified)", "A498 renal", "> 100 µM"),
    ("Nc1nc(Nc2ccccc2)sc1C(=O)c1ccco1", "A498 renal", "39.6 µM"),
    ("O=S1(=O)c2cnccc2NC(=NCc2ccccc2)N1c1ccccc1", "A498 renal", "> 100 µM"),
]

Now examine the next entry.
For CN(C)c1cccc2c1C(=O)C=CC21c2ccc(N(C)C)c3c(N(C)C)ccc(c23)C(c2ccccc2)C1c1ccccc1 (stereo unspecified) the molecule record lists TGI as 22 µM

###

- Test system: OVCAR-5 ovarian
- assay: NCI tumour cell line growth inhibition, 48 h
TGI listing for selected molecules.

# example entries with known answers
# molecule, TGI
measured = [
    ("Nc1ccc(-c2nn3c(COc4ccc(Cl)cc4)nnc3s2)cc1", "> 100 µM"),
    ("Clc1ccc2c(c1)N(c1ncnc3ccc(-c4cnc5[nH]ncc5c4)cc13)CC2", "> 100 µM"),
    ("COC(=O)C1(O)C(c2ccccc2)=NC2(C)CCCC21 (stereo not given)", "> 100 µM"),
]

Summary line: COc1cccc2c1OCC1Cc3ccccc3OC21 (stereo not given) , OVCAR-5 ovarian, reported TGI = > 100 µM

For `c1ccc([P+](CCCCCCCC[P+](c2ccccc2)(c2ccccc2)c2ccccc2)(c2ccccc2)c2ccccc2)cc1` on OVCAR-5 ovarian, measured TGI was > 91.1 µM

###

- System: SF-295 CNS
- assay: NCI tumour cell line growth inhibition, 48 h
Known TGI of a selection of compounds
Write the number in µM without appending the unit.

# compound, system, unit.annotation, TGI
rows = [
    ("C=C1C2Oc3ccccc3C1N(c1ccccc1)O2 (stereo not given)", "SF-295 CNS", "µM", 62.7),
    ("CC(=O)Oc1c(C)c(C)c2c(c1C)CCC(C)(CC(=O)OCCCCCCCCCCC[P+](c1ccccc1)(c1ccccc1)c1ccccc1)O2 (stereo not given)", "SF-295 CNS", "µM", 1.09),
    ("COc1ccc(-n2nc(C)c3c(Nc4ccc(NC(=O)Nc5ccc(Cl)c(C(F)(F)F)c5)cc4)ncnc32)cc1", "SF-295 CNS", "µM", 3.49),
]

Here's the next entry for you.
Query CCCCCCCCCCCCCCCCCCOCC(COCCOCC[N+]1(CCCCCC(=O)[O-])CCCC1)Oc1ncccn1 (stereo not given) on SF-295 CNS; TGI returned: 27.2

###

- Test system: UO-31 renal
- assay: NCI tumour cell line growth inhibition, 48 h
Below, each entry is listed alongside its reported TGI.

Sample records with TGI:
# molecule, experimental.readout, measured.value
rows = [
    ("O=C1C=CC(=O)C(CNc2ccc(C(=O)OCc3ccccc3)cc2)=C1", "TGI", "7.49 µM"),
    ("C=C1C(=O)C23C(O)CC4C5(C)CCCC4(C(O)OC5)C2C(OC(C)=O)CC1C3O (stereo not given)", "TGI", "> 100 µM"),
    ("C/C1=C\\CC[C@@](C)(O)[C@@H]2C[C@H](CC/C(C)=C/CC1)C1(CC1)C(=O)O2", "TGI", "> 100 µM"),
    ("O=C(O)/C=C\\C(=O)Nc1ccc(S(=O)(=O)c2ccc(NC(=O)/C=C\\C(=O)O)cc2)cc1", "TGI", "> 100 µM"),
]

Let us move to another entry and its TGI.
// sample `CCOC(=O)c1c(SCCN2CCOCC2)n(-c2ccccc2)c(=S)n(-c2ccccc2)c1=O` , its TGI was > 100 µM

###

- Test system: UACC-62 melanoma
- assay: NCI tumour cell line growth inhibition, 48 h
experimental.readout: TGI (µM)
Provide only the numeric value, understood in µM.

# compound, experimental.readout, unit.annotation, measured.value
records = [
    ("O=C(CC(=O)Nc1ccccc1)NNC(c1cc(N=Nc2ccc(Br)cc2)ccc1O)P(O)O (stereo not drawn)", "TGI", "µM", 9.13),
]

Consider the additional compound presented here.
Measured TGI, `COc1ccc2[nH]c(-c3ccc(O)cc3)cc(=O)c2c1` : 38.9

###

- Tested on: OVCAR-8 ovarian
- assay: NCI tumour cell line growth inhibition, 48 h
experimental.readout: TGI

# compound, TGI
rows = [
    ("O=C(OCC1OC(n2nc(Cn3nnc(-c4cccnc4)n3)n(-c3cccc4ccccc34)c2=S)C(OC(=O)c2ccccc2)C1OC(=O)c1ccccc1)c1ccccc1 (stereo not given)", "> 100 µM"),
    ("O=C1OC(c2ccccc2)N(C(=O)c2ccccc2)C1Cc1ccc(OCc2ccccc2)cc1 (stereo not given)", "> 100 µM"),
    ("COc1cccc(COc2cc(-n3cnc4ccccc43)sc2C(N)=O)c1", "> 25 µM"),
    ("O=C(O)/C=C\\C(=O)Nc1ccc(S(=O)(=O)c2ccc(NC(=O)/C=C\\C(=O)O)cc2)cc1", "> 100 µM"),
    ("COc1ccccc1NC(=O)/C(=C/c1ccccc1)C(C)=O", "> 100 µM"),
]

TGI measured on CN1CCN(C2=C(Cl)C3(OCCS3)C(F)(F)C2(F)F)CC1 (stereo not given) = > 100 µM

Summary for this compound, `O=c1c2ccccc2sc2ccccc12` : TGI is > 100 µM

Per the record, `CCN(CC)c1ccc(/C=C/C2=[N+](C)c3ccccc3C2(C)C)c(C)c1` has TGI of 3.12 µM

TGI in this record for `c1cnn2ncc(-c3ccnc(Nc4ccc5c(c4)OCCO5)n3)c2c1` : > 25 µM

Entry under test: `Cc1cccc(N=Nc2ccc(N=Nc3c(O)ccc4ccccc34)cc2C)c1` . Its TGI was 60.3 µM

###

- Tested on: NCI/ADR-RES ovarian
- assay: NCI tumour cell line growth inhibition, 48 h
Measured TGI, listed per entry.

Consider the worked cases shown below.
# compound, experimental.readout, measured.value
data = [
    ("COC(=O)N1N=C(c2ccccc2)C1c1ccccc1 (stereo unspecified)", "TGI", "69.2 µM"),
    ("O=C(OCC1OC(n2nc(Cn3nnc(-c4cccnc4)n3)n(-c3cccc4ccccc34)c2=S)C(OC(=O)c2ccccc2)C1OC(=O)c1ccccc1)c1ccccc1 (stereo unspecified)", "TGI", "> 100 µM"),
    ("Cc1cc(C)n(C2=NS(=O)(=O)c3ccccc3N2C)n1", "TGI", "> 100 µM"),
    ("O=S1(=O)C[C@@H](NCc2ccccc2)[C@H](NCc2ccccc2)C1", "TGI", "> 100 µM"),
    ("CC(C)[O-].CC(C)[O-].CN(CCN(C)Cc1cc(F)cc(F)c1[O-])Cc1cc(F)cc(F)c1[O-].[Ti+4]", "TGI", "7.05 µM"),
    ("CCNc1ncnc2sc(SCc3ccccc3)nc12", "TGI", "> 100 µM"),
]

Per the records, this compound ( `COc1cccc2c(=O)c3c(sc12)c(NCCCNCCO)nc1ccccc13` ) has TGI equal to 3.94 µM

Kindly note the recorded TGI for `O=[N+]([O-])c1ccc2c(c1)c(N=NC(=S)Nc1ccc(Cl)cc1)c(O)n2CN1CCOCC1` , which is 5.9 µM

###

- System: OVCAR-5 ovarian
- assay: NCI tumour cell line growth inhibition, 48 h; in the data active means GI50 below about 0.43 µM; inactive means the rest
Response enum: y = active, n = inactive

These solved cases illustrate the format of a correct answer.
# molecule, system, class.name
records = [
    ("Fc1ccc2nc(-c3cc(-c4ccc5c(c4)OCO5)n[nH]3)[nH]c2c1", "OVCAR-5 ovarian", "n"),
    ("O=C1c2ccccc2-c2c1c1c(NCCCO)nc3ccccc3c1n2Cc1ccccc1", "OVCAR-5 ovarian", "n"),
]

Q) Status in this test for `COc1ccc(-n2nc(C)c3c(Nc4ccc(NC(=O)Nc5ccc(Cl)c(C(F)(F)F)c5)cc4)ncnc32)cc1` ?
A) n

Q) Record request — test call for `O=C(/C=C/c1cccc(O)c1)c1cccc(-n2cc(-c3ccc4ccccc4c3)[nH]c2=O)c1`
A) n
